experiment_description: Ratio of binding affinity towards E-coli beta - galactosidase to that of km/kcat was determined
observation_type: Ki/(Km/Kcat)

(I) OC[C@H]1OC[C@@H](O)[C@H]1O
(II) C[C@H]1OC[C@H](O)[C@@H](O)[C@H]1O
(III) OC[C@H]1OC[C@H](O)[C@@H](O)[C@@H]1O [1,5-Anhydrosorbitol]
(IV) O[C@@H]1COC[C@H]1O
// rank above by Ki/(Km/Kcat): first = highest number Arrange the labels as the request states and list them.
I, II, III, IV
(I: 1e+08, II: 630000, III: 330, IV: 77)

(a) O[C@H]1[C@H](O)COC[C@@H]1O
(b) OC[C@H]1OC[C@@H](O)[C@@H]1O
(c) OC[C@H]1OC[C@H](O)[C@@H](O)[C@H]1O
Which order do these items take when sorted by rising Ki/(Km/Kcat)? List them. Dear reader, please state the labels in the requested order.
a, b, c
(a: 85, b: 240, c: 3.9e+08)

* * *

experiment_description: Ratio of binding affinity towards E-coli beta - galactosidase to that of Michaelis-Menten constant against E-coli beta-galactosidase
observation_type: Ki/Km

Check out these entries, answers already filled in.
INSERT INTO assay_data (compound, data_value) VALUES
  ('O[C@@H]1COC[C@H]1O', 5.1),
  ('OC[C@H]1OC[C@H](O)[C@@H](O)[C@H]1O', 154),
  ('O[C@H]1[C@H](O)COC[C@@H]1O', 15.6),
  ('OC[C@H]1OC[C@H](O)[C@@H](O)[C@@H]1O [1,5-Anhydrosorbitol]', 2.2),
  ('C[C@H]1OC[C@H](O)[C@@H](O)[C@H]1O', 1.2);

(P) OC[C@H]1OC[C@@H](O)[C@@H]1O
(Q) OC[C@H]1OC[C@@H](O)[C@H]1O
Of P versus Q , which is the one with smaller reported Ki/Km? Response format: the label of the selected entry.
P

* * *

target_or_test_system: Beta-galactosidase (Escherichia coli, UniProt Q8VNN2)
Sequence (Q8VNN2 whole entry): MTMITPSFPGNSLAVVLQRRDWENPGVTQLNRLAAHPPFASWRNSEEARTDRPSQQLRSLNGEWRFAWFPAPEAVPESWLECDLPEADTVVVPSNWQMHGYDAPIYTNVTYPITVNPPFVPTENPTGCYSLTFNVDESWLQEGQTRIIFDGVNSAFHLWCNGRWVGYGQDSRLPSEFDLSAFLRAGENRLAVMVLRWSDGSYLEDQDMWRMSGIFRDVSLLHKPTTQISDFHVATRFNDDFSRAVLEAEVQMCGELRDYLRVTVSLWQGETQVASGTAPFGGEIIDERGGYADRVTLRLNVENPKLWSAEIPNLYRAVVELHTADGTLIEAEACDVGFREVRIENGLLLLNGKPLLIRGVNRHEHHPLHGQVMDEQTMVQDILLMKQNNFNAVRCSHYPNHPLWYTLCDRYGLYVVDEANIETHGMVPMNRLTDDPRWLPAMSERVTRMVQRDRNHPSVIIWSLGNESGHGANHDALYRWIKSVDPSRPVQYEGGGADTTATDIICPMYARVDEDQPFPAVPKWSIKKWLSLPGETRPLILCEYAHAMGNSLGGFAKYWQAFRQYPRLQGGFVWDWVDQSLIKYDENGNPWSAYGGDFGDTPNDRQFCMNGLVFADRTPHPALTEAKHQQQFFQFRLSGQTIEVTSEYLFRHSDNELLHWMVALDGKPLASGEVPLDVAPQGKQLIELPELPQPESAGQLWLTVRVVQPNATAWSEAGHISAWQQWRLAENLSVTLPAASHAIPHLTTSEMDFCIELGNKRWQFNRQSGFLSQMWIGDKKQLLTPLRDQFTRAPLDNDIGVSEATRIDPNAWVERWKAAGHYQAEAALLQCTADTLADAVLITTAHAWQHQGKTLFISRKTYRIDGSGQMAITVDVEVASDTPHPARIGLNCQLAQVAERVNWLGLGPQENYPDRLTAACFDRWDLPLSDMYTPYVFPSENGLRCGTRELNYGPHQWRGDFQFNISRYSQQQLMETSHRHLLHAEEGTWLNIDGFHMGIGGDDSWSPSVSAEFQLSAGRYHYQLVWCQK
experiment_description: Compound was evaluated for its binding affinity towards E-coli Beta-galactosidase
observation_type: Ki (mM)

// worked examples, Ki included
INSERT INTO assay_data (compound, observation_type, data_value) VALUES
  ('OC[C@H]1OC[C@H](O)[C@@H](O)[C@@H]1O [1,5-Anhydrosorbitol]', 'Ki', 71),
  ('OC[C@H]1OC[C@H](O)[C@@H](O)[C@H]1O', 'Ki', 7.4),
  ('O[C@@H]1COC[C@H]1O', 'Ki', 77);

(A) O[C@H]1[C@H](O)COC[C@@H]1O
(B) OC[C@H]1OC[C@@H](O)[C@H]1O
Given A and B , report the one with the higher recorded Ki. Select an item and report its label.
A
(A: 85 mM, B: 1.9 mM)
